Source: patent US20070258982A1

- System Tested: T1, human IL-22 (human, UniProt Q9GZX6 34-179)
- T1 sequence: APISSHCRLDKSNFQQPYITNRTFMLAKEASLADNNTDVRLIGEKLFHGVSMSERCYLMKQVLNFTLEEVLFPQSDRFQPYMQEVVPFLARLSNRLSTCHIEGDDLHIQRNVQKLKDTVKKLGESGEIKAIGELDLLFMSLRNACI
- Assay Details: cell-based or functional assay
Reported Endpoint: IC50 of IgG (pM) in BaF3-IL-22 proliferation assay
// note: answer is a bare numeric in pM

Binder: 166G05 IgG (non-germlined) (antibody, V domains shown) VH: EVQLVQSGAEVKKPGASVKVSCQASGYTFSDYYIHWVRQTPGQGFEWMGWVNPDTGGTRYAQKFQGWVTMTRDMSNTTAYMELPRLRDDDTAVYYCARDLTGFDPFDIWGQGTLVTVSS VL: QSVLTQPPSVSVAPGKTATITCGGNNFRNKRVHWYQQRPGQAPVLVIYYDSDRPSGIPERFSGSRSGNTATLTISRVEAGDEADFYCQVWDFLTDSGSFGGGTKLTVLG
Endpoint Result: 97

Binder: 367D04 IgG (non-germlined) (antibody, V domains shown, IgG) VH: EVQLVESGGGVVRPGGSLRLSCAASGFTFDDYGMNWVRQAPGKGLEWVSGVNWNGGTRDYAASVKGRFTISRDNAKNSLYLQMNSLRAEDTALYYCARGWYSGSPWSLGHWGRGTLVTVSS VL: QAVLTQPSSVSGSPGQSVTISCTGASGDVGAYNFVSWYQQHPGKTPKLIIYDVNKRPSGVSNRFSGSKSGNTASLTISRLQAEDESDYYCSSYTSRYTTEFGGGTKVTVLG
Endpoint Result: 126

// next entry
The reported IC50 of IgG (pM) in BaF3-IL-22 proliferation assay of the binder 376B10 IgG (non-germlined) (antibody, V domains shown, IgG) VH: EVQLVQSGAEVKKPGASVKVSCQASGYTFSDYYIHWVRQTPGQGFEWMGWVNPDTGGTRYAQKFQGWVTMTRDMSNTTAYMELPGLRDDDTAVYYCARDLTGYDQYTAWGQGTLVTVSS VL: QSVLTQPPSVSVAPGKTATITCGGNNFRNKRVHWYQQRPGQAPVLVIYYDSDRPSGIPERFSGSRSGNTATLTISRVEAGDEADFYCSTFDPFTDRPLFGGGTKLTVLG was 119
